- Tested system: UniProtKB P11712
- Sequence (P11712 whole entry): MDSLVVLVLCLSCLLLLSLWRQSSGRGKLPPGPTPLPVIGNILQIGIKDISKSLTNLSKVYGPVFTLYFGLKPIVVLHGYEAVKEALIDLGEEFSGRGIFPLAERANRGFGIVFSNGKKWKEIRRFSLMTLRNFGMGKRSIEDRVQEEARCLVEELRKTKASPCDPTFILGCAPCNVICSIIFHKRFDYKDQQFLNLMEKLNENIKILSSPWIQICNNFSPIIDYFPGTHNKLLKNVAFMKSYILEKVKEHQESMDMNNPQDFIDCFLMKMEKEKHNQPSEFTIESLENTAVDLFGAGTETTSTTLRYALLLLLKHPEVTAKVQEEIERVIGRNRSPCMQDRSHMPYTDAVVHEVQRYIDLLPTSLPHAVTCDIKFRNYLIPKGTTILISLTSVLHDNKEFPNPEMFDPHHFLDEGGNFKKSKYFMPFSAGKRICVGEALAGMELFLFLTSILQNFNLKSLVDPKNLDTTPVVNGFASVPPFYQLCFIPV
- Protocol: Inhibitory effect on CYP enzymatic activity in human liver microsomes
- Type: in vitro ADME
- Experimental setup: read-out: Inhibition on CYP2C9 IC50; human liver microsomes, substrate diclofenac
Readout type: IC50

Name the recorded IC50 of the compound listed here: CC[C@@]1(O)C(=O)OCc2c1cc1n(c2=O)Cc2c-1nc1cc3c(cc1c2CNC(=O)C(O)C1CC1)OCO3 (single isomer, unassigned) [Compound 14-P2]
> 50 µM

---

Please go through the items and note down their Papp A→B at 2 h, 10 μM.
- Protocol: Membrane permeability and transport characteristics (Caco-2 Transwell)
- Type: in vitro ADME
- Experimental setup: human; Caco-2, apical to basal, 10 μM, 2 h, pH 7.4
Answers are plain numbers, in ×10⁻⁶ cm/s.

[[record]]
compound = "CC[C@@]1(O)C(=O)OCc2c1cc1n(c2=O)Cc2c-1nc1cc3c(cc1c2CNC(=O)C(O)C1CC1)OCO3 (some centres unmarked) [Compound 14]"
readout_type = "Papp A→B at 2 h, 10 μM"
recorded_number = 0.26


Name the recorded Papp A→B at 2 h, 10 μM of the compound listed here: [2H]C1([2H])Oc2cc3nc4c(c(CNC(=O)C(O)C5CC5)c3cc2O1)Cn1c-4cc2c(c1=O)COC(=O)[C@]2(O)CC (some centres unmarked) [Compound 39]
0.71

---

- Protocol: Plasma protein binding rate (equilibrium dialysis)
- Assay type: in vitro ADME, human
- Experimental setup: pH 7.4; human plasma, 1 μM, equilibrium dialysis 6 h, 37° C.; read-out: % Human plasma protein binding rate (converted)
Readout type: fraction unbound at 6 h, 1 μM

Name the recorded fraction unbound at 6 h, 1 μM of the compound listed here: CC[C@@]1(O)C(=O)OCc2c1cc1n(c2=O)Cc2c-1nc1cc3c(cc1c2CNC(=O)C(O)C1CC1)OCO3 (single isomer, unassigned) [Compound 14-P1]
0.106

---

- Protocol: Plasma protein binding rate (equilibrium dialysis)
- Format: in vitro ADME, mouse
- Experimental setup: CD-1, mouse, plasma, pH 7.4
Readout type: fraction unbound at 6 h, 1 μM
Give bare numbers.

Name the recorded fraction unbound at 6 h, 1 μM of the compound listed here: CC[C@@]1(O)C(=O)OCc2c1cc1n(c2=O)Cc2c-1nc1cc3c(c(F)c1c2CNC(=O)[C@@H](O)C1CC1)OCO3 (single isomer, unassigned) [Compound 37-P1]
0.327

---

- Protocol: Membrane permeability and transport characteristics (Caco-2 Transwell)
- Assay type: in vitro ADME
- Experimental setup: human; Caco-2, basal to apical, 10 μM, 2 h, pH 7.4
- Protocol: The membrane permeability and transport characteristics of the compounds of the present disclosure were determined by the following experimental method. • 1. Caco-2 cells (ATCC) • 2. HEPES (Solarbio 804D049), penicillin/streptomycin (Solarbio 20200109) and PBS (Solarbio 20200620) • 3. Fetal bovine serum (FBS) (Sigma WXBD0055V), fluorescein (Sigma MKCJ3738) and NaHCO3 (Sigma SLBZ4647) • 4. […] Infinite 200 PRO microplate reader (Tecan, Infinite M200PRO) • 10. […]
Readout type: Papp B→A at 2 h, 10 μM (×10⁻⁶ cm/s)
Answers are plain numbers, in ×10⁻⁶ cm/s.

[[record]]
molecule = "[2H]C1([2H])Oc2cc3nc4c(c(CNC(=O)C(O)C5CC5)c3cc2O1)Cn1c-4cc2c(c1=O)COC(=O)[C@]2(O)CC (some centres unmarked)"
readout_type = "Papp B→A at 2 h, 10 μM"
recorded_number = 4.21


// below: Papp B→A at 2 h, 10 μM requested for another molecule
Name the recorded Papp B→A at 2 h, 10 μM of the molecule listed here: CC[C@@]1(O)C(=O)OCc2c1cc1n(c2=O)Cc2c-1nc1cc3c(cc1c2CNC(=O)C(O)C1CC1)OCO3 (some centres unmarked)
3.95

---

- Test system: Human colorectal cancer cell line HCT116
- Protocol: Test 1 of anti-proliferative activity against tumor cells (Cell-Titer Glo)
- Format: cell-based
- Experimental setup: Homo sapiens, HCT-116, 72 h, HCT116 cells, cultured 3 days with compound, Cell-Titer Glo; read-out: HCT116 Anti-proliferative activity IC50
Please go through the items and note down their IC50.
Answers are plain numbers, in nM.

Solved entries (count: 3):
[[record]]
compound = "[2H]C1([2H])Oc2cc3nc4c(c(CNC(=O)[C@@H](O)C5CC5)c3cc2O1)Cn1c-4cc2c(c1=O)COC(=O)[C@]2(O)CC [Compound 39-P1]"
readout_type = "IC50"
units_symbol = "nM"
recorded_number = 4.6

[[record]]
compound = "CC[C@@]1(O)C(=O)OCc2c1cc1n(c2=O)Cc2c-1nc1cc(F)c(Cl)c(F)c1c2CNC(=O)C(O)C1CC1 (stereo partly shown) [Compound 23-P1]"
readout_type = "IC50"
units_symbol = "nM"
recorded_number = 7.9

[[record]]
compound = "[2H]C1([2H])Oc2cc3nc4c(c(CNC(=O)C(O)C5CC5)c3cc2O1)Cn1c-4cc2c(c1=O)COC(=O)[C@]2(O)CC (stereo partly shown)"
readout_type = "IC50"
units_symbol = "nM"
recorded_number = 9.5


// below: IC50 requested for another compound
Name the recorded IC50 of the compound listed here: CC[C@@]1(O)C(=O)OCc2c1cc1n(c2=O)Cc2c-1nc1cc3c(c(F)c1c2CNC(=O)[C@@H](O)C1CC1)OCO3 (single isomer, unassigned) [Compound 37-P1]
4.8

---

- Test system: human non-small cell lung cancer cell line A549
- Protocol: Test 2 of anti-proliferative activity against tumor cells (Cell-Titer Glo)
- Assay type: cell-based
- Experimental setup: Homo sapiens, A549, 120 h, read-out: A549 Anti-proliferative activity IC50 (nM), A549 cells, 5 days, Cell-Titer Glo
Readout type: IC50 (nM)
Give bare numbers, in nM.

[[record]]
compound = "CC[C@@]1(O)C(=O)OCc2c1cc1n(c2=O)Cc2c-1nc1cc3c(c(Cl)c1c2CNC(=O)CO)OCO3"
tested_system = "human non-small cell lung cancer cell line A549"
units_symbol = "nM"
recorded_number = 15.9


Would you be so kind as to report IC50 for each listed record?
1. CC[C@@]1(O)C(=O)OCc2c1cc1n(c2=O)Cc2c-1nc1cc3c(c(F)c1c2CNC(=O)C(O)C1CC1)OCO3 (some centres unmarked)
2. CC[C@@]1(O)C(=O)OCc2c1cc1n(c2=O)Cc2c-1nc1cc3c(cc1c2CNC(=O)C(O)C1CC1)OCO3 (some centres unmarked) [Compound 14]
3. [2H]C1([2H])Oc2cc3nc4c(c(CNC(=O)C(O)C5CC5)c3cc2O1)Cn1c-4cc2c(c1=O)COC(=O)[C@]2(O)CC (some centres unmarked)
4. CC[C@@]1(O)C(=O)OCc2c1cc1n(c2=O)Cc2c-1nc1cc3c(cc1c2CNC(=O)C(O)C1CC1)OCO3 (single isomer, unassigned) [Compound 14-P1]

1: 19.6; 2: 9.7; 3: 19.1; 4: 10.2

---

- Test system: human ovarian cancer cell line OVCAR3
- Protocol: Test 1 of anti-proliferative activity against tumor cells (Cell-Titer Glo)
- Assay type: cell-based
- Experimental setup: Homo sapiens, OVCAR-3, 120 h, read-out: OVCAR3 Anti-proliferative activity IC50 (nM)
Please go through the items and note down their IC50.
Answers are plain numbers, in nM.

Solved entries (count: 5):
[[record]]
compound = "CC[C@@]1(O)C(=O)OCc2c1cc1n(c2=O)Cc2c-1nc1cc(Cl)c(C)cc1c2CNC(=O)CO"
tested_system = "human ovarian cancer cell line OVCAR3"
units_symbol = "nM"
recorded_number = 2.1

[[record]]
compound = "CC[C@@]1(O)C(=O)OCc2c1cc1n(c2=O)Cc2c-1nc1cc(F)c(Cl)c(F)c1c2CNC(=O)[C@H](C)O"
tested_system = "human ovarian cancer cell line OVCAR3"
units_symbol = "nM"
recorded_number = 1.6

[[record]]
compound = "CC[C@@]1(O)C(=O)OCc2c1cc1n(c2=O)Cc2c-1nc1cc3c(c(Cl)c1c2CNC(=O)CO)OCO3"
tested_system = "human ovarian cancer cell line OVCAR3"
units_symbol = "nM"
recorded_number = 0.2

[[record]]
compound = "CC[C@@]1(O)C(=O)OCc2c1cc1n(c2=O)Cc2c-1nc1ccc3c(c1c2CNC(=O)C(O)C1CC1)CCC3 (stereo partly shown)"
tested_system = "human ovarian cancer cell line OVCAR3"
units_symbol = "nM"
recorded_number = 0.7

[[record]]
compound = "CC[C@@]1(O)C(=O)OCc2c1cc1n(c2=O)Cc2c-1nc1cc3c(c(F)c1c2CN)OCO3"
tested_system = "human ovarian cancer cell line OVCAR3"
units_symbol = "nM"
recorded_number = 0.9


Would you be so kind as to report IC50 for each listed record?
1. CC[C@@]1(O)C(=O)OCc2c1cc1n(c2=O)Cc2c-1nc1cc(F)c(Cl)c(F)c1c2CNC(=O)CO
2. CC[C@@]1(O)C(=O)OCc2c1cc1n(c2=O)Cc2c-1nc1cc3c(c(F)c1c2CNC(=O)CO)OCO3

1.7
2.9
